assay: Mouse pharmacokinetics, i.v./oral and enabling formulations; assay type: in vivo; conditions: plasma, po; 1 mg/kg p.o., SF, mouse; read-out: oral exposure (AUC)
reported-metric: AUC (µM·h)
State just the number; it will be interpreted in µM·h.

For record Cc1ncsc1-c1ccc(CNC(=O)[C@@H]2C[C@@H](O)CN2C(=O)[C@@H](NC(=O)COCCCOCCCOc2cc(F)c([C@@H]3c4[nH]c5ccccc5c4C[C@@H](C)N3CC(C)(C)F)c(F)c2)C(C)(C)C)cc1 the listed AUC is 0.02

###

Target: ERα (Homo sapiens, UniProt P03372)
Construct: endogenous in cells; host or cells: MCF7 (also MCF7 engineered to express Cas9)
Sequence (P03372 1-595): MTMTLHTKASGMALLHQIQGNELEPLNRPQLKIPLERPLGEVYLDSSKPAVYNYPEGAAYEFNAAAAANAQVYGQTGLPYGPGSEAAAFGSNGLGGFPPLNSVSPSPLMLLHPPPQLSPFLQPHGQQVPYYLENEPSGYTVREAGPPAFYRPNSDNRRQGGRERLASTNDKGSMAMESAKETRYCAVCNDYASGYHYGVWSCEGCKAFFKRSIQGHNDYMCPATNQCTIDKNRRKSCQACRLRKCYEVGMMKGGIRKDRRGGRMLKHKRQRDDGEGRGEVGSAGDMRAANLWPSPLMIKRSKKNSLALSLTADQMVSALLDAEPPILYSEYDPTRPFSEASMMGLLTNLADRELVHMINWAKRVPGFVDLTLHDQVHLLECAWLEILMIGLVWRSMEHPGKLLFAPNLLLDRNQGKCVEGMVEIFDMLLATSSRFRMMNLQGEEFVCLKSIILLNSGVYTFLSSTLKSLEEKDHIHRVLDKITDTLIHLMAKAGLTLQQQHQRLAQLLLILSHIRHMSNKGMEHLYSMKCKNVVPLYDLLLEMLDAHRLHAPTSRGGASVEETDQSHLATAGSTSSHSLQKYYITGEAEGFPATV
Test: ERα high throughput imaging degradation assay in MCF7 cells
Assay type: cell-based
Conditions: MCF7 cells, 20 to 24 hours
reported-metric: DC50 (nM)
Write the number in nM without appending the unit.

Guide cases for DC50, answers given:
Item: Cc1ncsc1-c1ccc(CNC(=O)[C@@H]2C[C@@H](O)CN2C(=O)[C@@H](NC(=O)COCCCOCCCOc2cc(F)c([C@@H]3c4[nH]c5ccccc5c4C[C@@H](C)N3CC(C)(C)F)c(F)c2)C(C)(C)C)cc1 [Compound 5] | DC50: 0.4

Looking up Cc1ncsc1-c1ccc(CNC(=O)[C@@H]2C[C@@H](O)CN2C(=O)[C@@H](NC(=O)C2(OCCCOCCCOc3cc(F)c([C@@H]4c5[nH]c6ccccc6c5C[C@@H](C)N4CC(C)(C)F)c(F)c3)CC2)C(C)(C)C)cc1 [Compound 13] , I see its DC50 listed as 2

Sure, the documented DC50 for Cc1ncsc1-c1ccc(CNC(=O)[C@@H]2C[C@@H](O)CN2C(=O)[C@@H](NC(=O)COCCOCCOCCOc2cc(F)c([C@@H]3c4[nH]c5ccccc5c4C[C@@H](C)N3CC(C)(C)F)c(F)c2)C(C)(C)C)cc1 [Compound 3] is 0.3

Now look at this entry.
Record Cc1ncsc1-c1ccc(CNC(=O)[C@@H]2C[C@H](O)CN2C(=O)[C@@H](NC(=O)COCCCOCCCOc2cc(F)c([C@@H]3c4[nH]c5ccccc5c4C[C@@H](C)N3CC(C)(C)F)c(F)c2)C(C)(C)C)cc1 [Compound 7] , field DC50: 3.1
